Items are presented alongside their recorded pEC50.
# System: HCV 1b-377-neo replicon cells
# Experiment: HCV replicon FRET assay
# Format: cell-based
# Settings: Hepatitis C virus; HCV replicon; read-out: Activity (EC50)
pEC50: −log10 of the molar value.

The examples below pair each entry with its known result.
O=C(Nc1ccc(/C=C/c2ccc(NC(=O)[C@@H]3C[C@@H](O)CN3C(=O)OCc3ccccc3)cc2)cc1)[C@@H]1CCCN1C(=O)Cc1ccccc1 [Example 275] | 7.05 to 10.00
O=C(Nc1ccc(/C=C/c2ccc(NC(=O)[C@@H]3CCCN3C(=O)c3ncccc3-c3cccc(Cl)c3)cc2)cc1)[C@@H]1CCCN1C(=O)c1ncccc1-c1cccc(Cl)c1 [Example 232] | 5.00 to 6.00

Provide only the value of recorded pEC50 for COc1ccc(C(=O)N2CCC[C@H]2C(=O)Nc2ccc(/C=C/c3ccc(NC(=O)[C@@H]4CCCN4C(=O)c4ccc(OC)nc4OC)cc3)cc2)c(OC)n1 [Example 193]
5.00 to 6.00

Read off the recorded pEC50 for COCC(=O)N1CCC[C@H]1C(=O)Nc1ccc(/C=C/c2ccc(NC(=O)[C@@H]3CCCN3C(=O)Cc3cc(C)no3)cc2)cc1 [Example 95]
7.05 to 10.00

Answer with reported pEC50 of O=C(Nc1ccc(/C=C/c2ccc(NC(=O)[C@@H]3CCCN3C(=O)c3cccnc3Cl)cc2)cc1)[C@@H]1CCCN1C(=O)c1cccnc1Cl [Example 191]
5.00 to 6.00

Note down pEC50 recorded for CCCc1c(C(=O)N2CCC[C@H]2C(=O)Nc2ccc(/C=C/c3ccc(NC(=O)[C@@H]4CCCN4C(=O)c4cnn(-c5ccccc5)c4CCC)cc3)cc2)cnn1-c1ccccc1 [Example 175]
5.00 to 6.00

====

# System: HCV 1b-377-neo replicon cells
# Experiment: HCV replicon FRET assay
# Assay type: cell-based
# Settings: Hepatitis C virus; HCV replicon; read-out: Activity (EC50)
pEC50: −log10 of the molar value.
Attribute measured: pEC50

A selection of reference data follows.
O=C(Nc1ccc(/C=C/c2ccc(NC(=O)[C@@H]3CCCN3C(=O)COc3cccc(Cl)c3)cc2)cc1)[C@@H]1CCCN1C(=O)COc1cccc(Cl)c1 [Example 38] | 6.00 to 7.00
Cn1cncc1C(=O)N1CCC[C@H]1C(=O)Nc1ccc(/C=C/c2ccc(NC(=O)[C@@H]3CCCN3C(=O)c3cncn3C)cc2)cc1 [Example 211] | 7.05 to 10.00

Using the record for O=C(Nc1ccc(/C=C/c2ccc(NC(=O)[C@@H]3CCCCN3C(=O)OCc3ccccc3)cc2)cc1)[C@@H]1CCCCN1C(=O)OCc1ccccc1 [Example 9] , state its measured pEC50.
7.05 to 10.00

====

# System: HCV 1b-377-neo replicon cells
# Experiment: HCV replicon FRET assay
# Format: cell-based
# Settings: Hepatitis C virus; HCV replicon; read-out: Activity (EC50)
# Description: The HCV replicon cell line was isolated from colonies as described by Lohman, et. al. (Science 1999, 285, 110-113, expressly incorporated by reference in its entirety) and used for all experiments. The HCV replicon has the nucleic acid sequence set forth in EMBL Accession No.: AJ242652, the coding sequence of which is from nt 1801 to 7758. […]
pEC50: −log10 of the molar value.
Attribute measured: pEC50

O=C(Nc1ccc(/C=C/c2ccc(NC(=O)[C@@H]3CCCN3C(=O)[C@H](O)c3ccccc3)cc2)cc1)[C@@H]1CCCN1C(=O)[C@H](O)c1ccccc1 [Example 298] | 7.05 to 10.00
O=C(Nc1ccc(/C=C/c2ccc(NC(=O)[C@@H]3CCCN3C(=O)[C@H]3CCCO3)cc2)cc1)C1CCC1 [Example 262] | 6.00 to 7.00
COCC(=O)N1CCC[C@H]1C(=O)Nc1ccc(/C=C/c2ccc(NC(=O)[C@@H]3CCCN3C(=O)c3ccc(N(C)C)cc3)cc2)cc1 [Example 91] | 6.00 to 7.00
CCOc1ccccc1CC(=O)N1CCC[C@H]1C(=O)Nc1ccc(/C=C/c2ccc(NC(=O)[C@@H]3CCCN3C(=O)Cc3ccccc3OCC)cc2)cc1 [Example 173] | 5.00 to 6.00

Report value only: pEC50, HCV 1b-377-neo replicon cells, O=C(Nc1ccc(/C=C\c2ccc(NC(=O)[C@@H]3CCCN3C(=O)OCc3ccccc3)cc2)cc1)[C@@H]1CCCN1C(=O)OCc1ccccc1 [Example 6]
7.05 to 10.00

Look up HCV 1b-377-neo replicon cells data: pEC50 of Cc1cc(C)c(S(=O)(=O)N2CCC[C@H]2C(=O)Nc2ccc(/C=C/c3ccc(NC(=O)[C@@H]4CCCN4S(=O)(=O)c4c(C)cc(C)cc4C)cc3)cc2)c(C)c1 [Example 279] , then report it.
6.00 to 7.00

Enter measured pEC50, system HCV 1b-377-neo replicon cells, for the compound shown: CCc1ccccc1C(=O)Nc1ccc(/C=C/c2ccc(NC(=O)[C@@H]3CCCN3C(=O)Cc3ccccc3)cc2)cc1 [Example 265]
6.00 to 7.00

Please respond with reported pEC50 (system HCV 1b-377-neo replicon cells) for O=C(Nc1ccc(/C=C/c2ccc(NC(=O)[C@@H]3Cc4ccccc4N3C(=O)OCc3ccccc3)cc2)cc1)[C@@H]1Cc2ccccc2N1C(=O)OCc1ccccc1 [Example 19] .
7.05 to 10.00

Report pEC50 on HCV 1b-377-neo replicon cells for this entry: O=C(Cc1ccccc1)C1C[C@H](O)C[C@H]1C(=O)Nc1ccc(/C=C/c2ccc(NC(=O)[C@@H]3C[C@@H](O)CN3C(=O)Cc3ccccc3)cc2)cc1 (some centres unmarked) [Example 291]
7.05 to 10.00

Provide pEC50, system HCV 1b-377-neo replicon cells, entry Cn1cccc1CC(=O)N1CCC[C@H]1C(=O)Nc1ccc(/C=C/c2ccc(NC(=O)[C@@H]3CCCN3C(=O)Cc3cccn3C)cc2)cc1 [Example 105]
7.05 to 10.00

Under HCV 1b-377-neo replicon cells, report pEC50 for Cc1cccc(-n2cnc(C(=O)N3CCC[C@H]3C(=O)Nc3ccc(/C=C/c4ccc(NC(=O)[C@@H]5CCCN5C(=O)c5cn(-c6cccc(C)n6)cn5)cc4)cc3)c2)n1 [Example 213]
5.00 to 6.00

All figures here come from patent US8143288B2.
